Examples of compounds with documented pIC50 follow.
target_or_system: Steryl-sulfatase (Homo sapiens, UniProt P08842)
Sequence (P08842 whole entry): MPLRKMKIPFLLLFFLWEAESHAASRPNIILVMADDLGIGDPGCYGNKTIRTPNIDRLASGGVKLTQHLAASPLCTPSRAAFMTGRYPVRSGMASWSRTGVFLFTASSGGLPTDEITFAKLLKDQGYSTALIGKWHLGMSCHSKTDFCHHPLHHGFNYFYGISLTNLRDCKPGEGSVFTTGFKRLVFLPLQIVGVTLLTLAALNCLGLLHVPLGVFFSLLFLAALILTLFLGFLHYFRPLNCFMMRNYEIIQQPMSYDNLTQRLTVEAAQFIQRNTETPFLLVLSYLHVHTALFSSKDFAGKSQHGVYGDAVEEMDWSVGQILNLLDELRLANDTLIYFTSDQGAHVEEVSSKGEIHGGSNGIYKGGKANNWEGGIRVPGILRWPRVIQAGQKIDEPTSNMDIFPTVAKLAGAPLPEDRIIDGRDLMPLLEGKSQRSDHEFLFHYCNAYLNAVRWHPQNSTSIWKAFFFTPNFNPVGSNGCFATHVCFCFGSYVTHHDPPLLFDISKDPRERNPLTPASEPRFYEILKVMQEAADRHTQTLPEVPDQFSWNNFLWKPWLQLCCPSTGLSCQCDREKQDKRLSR
Just the number, please; pIC50 means minus log10 of the concentration in mol/L.

C[C@]12CC[C@@H]3c4ccc(OS(N)(=O)=O)cc4CC[C@H]3[C@@H]1CC/C2=N\O = 7.10

For the next question, use this compound.
get_value(item= C[C@]12CC[C@@H]3c4ccc(OS(N)(=O)=O)cc4CC[C@H]3[C@@H]1CCC2=O [EMATE] , readout=pIC50) returns 7.03

Data origin: ChEMBL document CHEMBL1132331
